The measured values listed here are drawn from PubChem BioAssay (NCI).

Tested on: UO-31 renal
assay-notes: NCI tumour cell line growth inhibition, 48 h; in the data active = GI50 below about 0.43 µM; inactive = the rest
Respond only with the outcome that fits, drawn from class 1 = active, class 0 = inactive

Entry `CCC[CH2][Sn]([CH2]CCC)([O]C(=O)c1nccnc1N)[O]C(=O)c1nccnc1N` : call = ? class 0

Entry `CCOC(=O)c1c(C)n2c(=O)cc(C)c3c(OC(C)=O)c(OC(C)=O)cc1c32` : call = ? class 0

Entry `COc1c(CNC(=O)CCl)cc2[nH]c(C)cc2c1CNC(=O)CCl` : call = ? class 0

Entry C=C1CCC2C3(C)COC(c4ccc(SC)cc4)OC3CCC2(C)C1C/C=C1/C(=O)OCC1O (stereo not given) : call = ? class 0

Entry `CC[O-].Cc1ccc2cccc([O-])c2n1.Cc1ccc2cccc([O-])c2n1.Cc1ccc2cccc([O-])c2n1.[Ti+4]` : call = ? class 0

Entry `O=C1C(Cl)=C(Nc2cccc(O)c2)C(=O)N1c1ccc(Cl)c(Cl)c1` : call = ? class 0

Entry CC1OC(OC2CC(O)C3(CO)C4C(O)CC5(C)C(C6=CC(=O)OC6)CCC5(O)C4CCC3(O)C2)C(O)C(O)C1O (stereo not given) : call = ? class 1

Entry COc1cccc(C2NC(=S)NC(C)=C2C(=O)Nc2ccc(F)c(Cl)c2)c1 (stereo not given) : call = ? class 0

Entry CCOC(=O)C1=C(C)NC2SC(=O)/C(=C\c3ccccc3)N2C1c1ccccc1 (stereo not given) : call = ? class 0

Entry `O=C1c2ccccc2-c2c1c1ccccc1c(=O)n2CCCN1CCN(CCCn2c3c(c4ccccc4c2=O)C(=O)c2ccccc2-3)CC1` : call = ? class 0

Entry `Cc1nc(/N=C(\N)NC(=O)Nc2ccccc2Cl)sc1C` : call = ? class 0

Entry `CCCCN(CCCC)CCCN=c1nc2c(c(N)n1-c1ccccc1)c(=S)n(-c1ccccc1)c(=S)n2-c1ccccc1` : call = ? class 1

Entry `C=C1C(=O)O[C@@H]2C[C@@H]1CC[C@@]1(C)O[C@@H]1CC[C@@]1(C)O[C@@H]1CC[C@@]2(C)O` : call = ? class 0

Entry `COc1ccc(Cc2cnc(NC(=O)c3sc4ccccc4c3Cl)s2)cc1` : call = ? class 0

Entry `CN(C)CCCNc1nccc(-c2c(-c3ccc(F)cc3)nn3cc(C(F)(F)F)ccc23)n1` : call = ? class 0
